From: ChEMBL document CHEMBL1129630

Protein target, amino acids: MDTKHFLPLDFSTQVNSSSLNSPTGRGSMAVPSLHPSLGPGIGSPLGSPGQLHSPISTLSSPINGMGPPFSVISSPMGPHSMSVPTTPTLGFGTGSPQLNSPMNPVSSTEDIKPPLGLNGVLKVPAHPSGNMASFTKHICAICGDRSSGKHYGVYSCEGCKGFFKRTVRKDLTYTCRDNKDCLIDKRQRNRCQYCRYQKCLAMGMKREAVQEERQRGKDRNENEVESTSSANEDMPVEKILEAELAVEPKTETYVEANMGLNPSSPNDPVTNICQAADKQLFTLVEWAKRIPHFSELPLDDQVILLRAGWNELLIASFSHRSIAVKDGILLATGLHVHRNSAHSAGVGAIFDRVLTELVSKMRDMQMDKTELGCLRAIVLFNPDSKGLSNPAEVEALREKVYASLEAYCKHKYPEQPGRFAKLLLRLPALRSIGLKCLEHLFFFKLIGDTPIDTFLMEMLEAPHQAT
Measurement name: pKd
API: returns pKd as number; meaning -log10 of concentration in mol/L.

Query block: So what does the record say about pKd for Cc1cc2c(cc1Sc1ncc(C(=O)O)s1)C(C)(C)CCC2(C)C ?
Result block: 6.00

Query block: Same lookup for Cc1cc2c(cc1Sc1ccc(C(=O)O)cn1)C(C)(C)CCC2(C)C , please.
Result block: 7.49
